These data points were gathered from patent US20060257543A1.

# testedTarget: hT1R1/hT1R3 umami receptor expressed in an HEK293 cell line (Homo sapiens, UniProt Q7RTX0+Q7RTX1)
# Construct: expressed in transfected cells; host or cells: HEK293 derivative, clone I-17, expression induced with mifepristone
# assayDetails: In vitro hT1R1/hT1R3 umami taste receptor activation assay (FLIPR, dose response)
# Format: cell-based
# measurementContext: read-out: Umami EC50
Catalogue of pEC50 readings, one per entry.
Reminder that pEC50 is minus the log10 of a molar concentration.

Consider the following illustrative entries.
compound	pEC50
c1ccc2oc(SCc3cn4ccccc4n3)nc2c1 [Example A12]	5.29
c1ccc2sc(SCc3cn4ccsc4n3)nc2c1 [Example A13]	5.28
CC1CCCCC1NC(=S)Nc1ccc2c(c1)OCO2 (stereo not drawn) [Example A19]	4.87
O=C(OCCCn1ncc2ccccc2c1=O)c1cccs1 [Example A7]	5.22
CCCCC(C)NC(=S)NC1CCCc2ccccc21 (stereo not drawn) [Example A18]	5.10
O=S(=O)(NCc1cc(F)cc2c1OCOC2)c1ccc(-c2ccccn2)s1 [Example A23]	4.99
CCc1ccc(NC(=S)NCCc2ccccn2)cc1 [Example A4]	5.86
S=C(NCCc1ccccn1)Nc1ccccc1OCc1ccccc1 [Example A1]	5.88
O=C(OCc1ccccn1)c1ccc(COc2cccc3ccccc23)cc1 [Example A22]	5.41
O=C(SCc1ccccn1)c1ccccc1 [Example A11]	5.20

Param item = CCOC(=O)COc1ccc(S(=O)(=O)Nc2ccc3c(c2)OCO3)cc1 [Example A14] ; retrieve measured pEC50.
4.84

Please look up its pEC50: COc1ccc(CNc2ccccn2)cc1 [Example A8]
4.93

====

# testedTarget: hT1R2/hT1R3 sweet receptor expressed in an HEK293 cell line (Homo sapiens, UniProt Q7RTX0+Q8TE23)
# Construct: expressed in transfected cells; host or cells: HEK293 derivative, clone S-9
# Sequence (Q8TE23 20-839): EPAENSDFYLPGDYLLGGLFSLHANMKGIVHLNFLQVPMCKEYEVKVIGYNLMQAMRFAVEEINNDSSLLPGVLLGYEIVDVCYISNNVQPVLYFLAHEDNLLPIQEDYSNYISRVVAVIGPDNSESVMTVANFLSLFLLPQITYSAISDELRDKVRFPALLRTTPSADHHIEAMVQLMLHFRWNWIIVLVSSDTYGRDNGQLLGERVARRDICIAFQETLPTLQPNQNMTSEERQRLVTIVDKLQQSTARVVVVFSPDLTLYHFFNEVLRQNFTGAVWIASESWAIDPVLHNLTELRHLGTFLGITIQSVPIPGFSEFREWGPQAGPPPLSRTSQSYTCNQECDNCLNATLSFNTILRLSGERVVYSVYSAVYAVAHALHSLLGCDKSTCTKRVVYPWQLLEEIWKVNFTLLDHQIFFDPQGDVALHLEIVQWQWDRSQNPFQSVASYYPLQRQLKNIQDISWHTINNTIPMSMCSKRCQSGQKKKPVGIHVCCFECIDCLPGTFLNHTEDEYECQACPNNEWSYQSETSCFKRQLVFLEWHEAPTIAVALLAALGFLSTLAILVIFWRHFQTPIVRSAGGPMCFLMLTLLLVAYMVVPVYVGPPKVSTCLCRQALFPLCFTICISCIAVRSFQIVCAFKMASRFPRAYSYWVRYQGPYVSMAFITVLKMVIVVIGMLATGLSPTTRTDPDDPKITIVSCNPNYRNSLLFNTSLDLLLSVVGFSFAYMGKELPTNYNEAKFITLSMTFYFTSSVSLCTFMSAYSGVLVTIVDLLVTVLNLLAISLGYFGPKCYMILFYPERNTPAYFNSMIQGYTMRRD
# Sequence (Q7RTX0 21-852): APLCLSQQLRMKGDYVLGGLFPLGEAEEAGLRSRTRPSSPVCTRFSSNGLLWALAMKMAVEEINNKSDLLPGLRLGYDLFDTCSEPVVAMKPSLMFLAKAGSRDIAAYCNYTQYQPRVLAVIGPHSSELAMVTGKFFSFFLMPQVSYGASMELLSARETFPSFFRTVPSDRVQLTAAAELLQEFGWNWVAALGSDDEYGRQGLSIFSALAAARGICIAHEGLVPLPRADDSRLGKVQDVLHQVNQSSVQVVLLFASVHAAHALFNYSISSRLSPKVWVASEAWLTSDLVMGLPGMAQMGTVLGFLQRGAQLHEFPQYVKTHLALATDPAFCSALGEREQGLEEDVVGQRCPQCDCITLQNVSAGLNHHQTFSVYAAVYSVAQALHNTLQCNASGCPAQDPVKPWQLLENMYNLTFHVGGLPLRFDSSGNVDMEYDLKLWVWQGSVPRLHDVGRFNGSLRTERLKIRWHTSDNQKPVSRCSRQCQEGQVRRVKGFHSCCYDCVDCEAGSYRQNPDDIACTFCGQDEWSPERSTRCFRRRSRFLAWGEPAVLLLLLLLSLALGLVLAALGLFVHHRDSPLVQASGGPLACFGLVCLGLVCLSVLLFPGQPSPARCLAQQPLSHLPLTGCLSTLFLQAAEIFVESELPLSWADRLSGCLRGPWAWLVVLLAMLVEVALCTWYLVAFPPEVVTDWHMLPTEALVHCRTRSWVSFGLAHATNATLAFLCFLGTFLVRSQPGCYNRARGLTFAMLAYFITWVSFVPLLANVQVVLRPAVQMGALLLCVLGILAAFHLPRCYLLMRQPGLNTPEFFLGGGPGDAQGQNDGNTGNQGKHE
# assayDetails: In vitro hT1R2/hT1R3 sweet taste receptor activation assay (FLIPR, dose response)
# Format: cell-based
# measurementContext: read-out: Sweet EC50
Entries whose EC50 is below 1000 nM take Yes; entries at or above 1000 nM take No.

Known results for compounds:
compound	label
CCOc1ccc(NC(=S)NCc2ccc[nH]2)cc1 [Example B10]	Yes
S=C(NCc1ccc[nH]1)Nc1ccc2c(c1)CCC2 [Example B23]	Yes
COc1c(S(=O)(=O)NCc2ccncc2)ccc(Cl)c1Cl [Example B45]	No

Find out if reported EC50 for CCOc1ccc(NC(=S)NCc2coc(C)c2)cc1 [Example B4] is less than 1000 nM
No

Determine whether this compound shows EC50 lower than 1000 nM (ties excluded): C#Cc1ccc(NC(=S)NCc2cccs2)cc1 [Example B36]
No

EC50 under 1000 nM? Item: CC(C)Oc1ccc(NC(=S)NCc2nccs2)cc1 [Example B3]
No

Check if EC50 falls below 1000 nM for CC(C)Oc1ccc(NC(=S)NCc2ccc[nH]2)cn1 [Example B12] .
Yes

Given CCOc1ccc(S(=O)(=O)NCc2ccncc2)cc1 [Example B44] , is recorded EC50 strictly lower than 1000 nM?
Yes

In plain terms, does CC(C)Oc1ccc(NC(=S)NCc2cccs2)cn1 [Example B11] come in under 1000 nM for EC50?
Yes

====

# testedTarget: hT1R1/hT1R3 umami receptor expressed in an HEK293 cell line (Homo sapiens, UniProt Q7RTX0+Q7RTX1)
# Construct: expressed in transfected cells; host or cells: HEK293 derivative, clone I-17, expression induced with mifepristone
# Sequence (Q7RTX1 21-841): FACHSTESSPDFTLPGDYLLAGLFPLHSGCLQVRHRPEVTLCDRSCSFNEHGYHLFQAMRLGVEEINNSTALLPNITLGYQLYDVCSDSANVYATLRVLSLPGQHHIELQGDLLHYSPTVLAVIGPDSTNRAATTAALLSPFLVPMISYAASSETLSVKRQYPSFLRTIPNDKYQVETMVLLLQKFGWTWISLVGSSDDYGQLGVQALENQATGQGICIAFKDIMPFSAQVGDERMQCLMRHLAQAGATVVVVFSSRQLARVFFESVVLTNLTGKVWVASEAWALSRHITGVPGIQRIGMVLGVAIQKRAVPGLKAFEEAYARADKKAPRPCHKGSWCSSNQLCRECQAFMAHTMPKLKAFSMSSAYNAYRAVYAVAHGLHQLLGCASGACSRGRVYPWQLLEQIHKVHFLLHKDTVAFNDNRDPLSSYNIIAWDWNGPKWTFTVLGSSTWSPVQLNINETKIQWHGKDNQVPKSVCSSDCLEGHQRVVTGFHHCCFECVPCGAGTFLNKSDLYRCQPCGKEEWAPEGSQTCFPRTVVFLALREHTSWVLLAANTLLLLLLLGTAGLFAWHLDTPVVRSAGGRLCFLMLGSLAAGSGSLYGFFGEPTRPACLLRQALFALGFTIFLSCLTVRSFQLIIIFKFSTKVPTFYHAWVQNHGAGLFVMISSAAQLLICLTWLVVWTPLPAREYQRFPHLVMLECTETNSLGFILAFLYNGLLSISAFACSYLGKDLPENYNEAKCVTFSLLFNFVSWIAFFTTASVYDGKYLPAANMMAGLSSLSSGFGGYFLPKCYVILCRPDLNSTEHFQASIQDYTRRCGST
# Sequence (Q7RTX0 21-852): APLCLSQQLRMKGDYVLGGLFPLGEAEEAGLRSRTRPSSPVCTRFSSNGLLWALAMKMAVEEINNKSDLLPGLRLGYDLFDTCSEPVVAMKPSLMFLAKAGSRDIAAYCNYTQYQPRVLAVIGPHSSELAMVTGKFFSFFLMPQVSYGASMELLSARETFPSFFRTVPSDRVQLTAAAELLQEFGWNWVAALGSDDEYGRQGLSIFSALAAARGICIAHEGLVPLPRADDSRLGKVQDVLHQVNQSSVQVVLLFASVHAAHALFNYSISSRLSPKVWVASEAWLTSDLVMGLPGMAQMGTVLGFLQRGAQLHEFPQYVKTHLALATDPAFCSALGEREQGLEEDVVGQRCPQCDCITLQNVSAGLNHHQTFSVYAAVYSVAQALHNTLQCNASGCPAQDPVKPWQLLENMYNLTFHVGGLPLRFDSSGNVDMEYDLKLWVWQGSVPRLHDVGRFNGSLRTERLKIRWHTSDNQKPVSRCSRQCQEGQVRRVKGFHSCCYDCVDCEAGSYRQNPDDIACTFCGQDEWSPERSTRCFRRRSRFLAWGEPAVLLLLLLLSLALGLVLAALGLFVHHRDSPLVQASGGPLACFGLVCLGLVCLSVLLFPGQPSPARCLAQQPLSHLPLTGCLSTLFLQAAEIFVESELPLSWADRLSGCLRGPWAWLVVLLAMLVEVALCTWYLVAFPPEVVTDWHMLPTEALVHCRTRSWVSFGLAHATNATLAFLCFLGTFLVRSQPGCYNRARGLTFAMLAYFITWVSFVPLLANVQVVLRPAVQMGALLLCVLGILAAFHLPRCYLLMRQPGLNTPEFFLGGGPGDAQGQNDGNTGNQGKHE
# assayDetails: In vitro hT1R1/hT1R3 umami taste receptor activation assay (FLIPR, dose response)
# Type: cell-based
# measurementContext: read-out: EC50 for activation of a hT1R1/hT1R3 umami receptor expressed in an HEK293 cell line
Below, each of the compounds is paired with its reported EC50 value.
Write down the numeric answer in µM and omit the unit.

chemSmiles	measuredResult
CCOc1ccc(NC(=S)NCCc2ccccn2)cc1	0.55

Then there is this compound:
// returns reported EC50 for input CCCC(CCC)NC(=S)c1ccc2c(c1)OCO2
8.8
